The entries below are paired with their reported viability, T/C.
Tested on: 156681-154-R-J1-PDC complex spheroid viability
Protocol summary: Anticancer human tumor 156681-154-R-J1-PDC patient-derived melanoma cell line growth inhibition [CLK]
Settings: second compound 0.316 µM; first compound 0.01 µM; hits give low values
Answer with a number only, understood to be in %.

Some solved entries appear below for comparison.
1. Cn1ncnc1[C@H]1c2n[nH]c(=O)c3cc(F)cc(c23)N[C@@H]1c1ccc(F)cc1 + CNC(=O)c1ccc(Nc2nc(OC3CCCC3)c3c(-c4ccc5nc(C)oc5c4)c[nH]c3n2)c(OC)c1	58.4
2. COc1c(OCCCN2CCOCC2)ccc2c3n(c(=NC(=O)c4cnc(N)nc4)nc12)CCN3 + CNC(=O)c1ccc(Nc2nc(OC3CCCC3)c3c(-c4ccc5nc(C)oc5c4)c[nH]c3n2)c(OC)c1	44.2

Req: Respond only with viability, T/C recorded for Cn1ncnc1[C@H]1c2n[nH]c(=O)c3cc(F)cc(c23)N[C@@H]1c1ccc(F)cc1 + CN1CCN(c2cc(C(=O)Nc3cc4cc(-c5cnn(C)c5)ccc4cn3)ccn2)CC1
Resp: 17.5

###

Test system: 156681-154-R-J1-PDC complex spheroid viability
Protocol summary: Anticancer human tumor 156681-154-R-J1-PDC cell line growth inhibition [CLK]
Settings: second compound 0.0316 µM; first compound 0.316 µM; hits give low values
Measured quantity: viability, T/C

Req: Respond only with viability, T/C recorded for C#Cc1c(F)ccc2cc(O)cc(-c3ncc4c(N5CC6CCC(C5)N6)nc(OCC56CCCN5CC(F)C6)nc4c3F)c12 (stereo unspecified) + CNC(=O)c1ccc(Nc2nc(OC3CCCC3)c3c(-c4ccc5nc(C)oc5c4)c[nH]c3n2)c(OC)c1
Resp: 104%

Req: Respond only with viability, T/C recorded for CC(CO)NC(=O)c1cc(-c2ccc(Cl)cc2)nn(-c2cnn(C)c2)c1=O (stereo unspecified) + CNC(=O)c1ccc(Nc2nc(OC3CCCC3)c3c(-c4ccc5nc(C)oc5c4)c[nH]c3n2)c(OC)c1
Resp: 122%

###

Tested on: 156681-154-R-J1-PDC complex spheroid viability
Protocol summary: Anticancer human tumor 156681-154-R-J1-PDC cell line growth inhibition [CLK];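 also: spheroids exposed to the agents for seven days; 100% = DMSO vehicle control viability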
Settings: second compound 1 µM; first compound 0.1 µM; hits give low values
The entries below are paired with their reported viability, T/C.

Some solved entries appear below for comparison.
1) CCc1c2c(nc3ccc(O)cc13)-c1cc3c(c(=O)n1C2)COC(=O)[C@]3(O)CC + CN1CCN(c2cc(C(=O)Nc3cc4cc(-c5cnn(C)c5)ccc4cn3)ccn2)CC1	2.85%
2) CC(Nc1ccc2c(c1)OCCn1cc(N3C(=O)OCC3C(F)F)nc1-2)C(N)=O (stereo not given) + CN1CCN(c2cc(C(=O)Nc3cc4cc(-c5cnn(C)c5)ccc4cn3)ccn2)CC1	0.42%

Req: Respond only with viability, T/C recorded for COc1cccc2c1C(=O)c1c(O)c3c(c(O)c1C2=O)CC(O)(C(=O)CO)CC3OC1CC(N)C(O)C(C)O1 (stereo not given) + CN1CCN(c2cc(C(=O)Nc3cc4cc(-c5cnn(C)c5)ccc4cn3)ccn2)CC1
Resp: 0.13%

Req: Respond only with viability, T/C recorded for C=C(F)C(=O)N1CCN(c2nc(OCC3CCCN3C)nc3c2CCN(c2cccc4cccc(Cl)c24)C3)CC1CC#N (stereo not given) + CNC(=O)c1ccc(Nc2nc(OC3CCCC3)c3c(-c4ccc5nc(C)oc5c4)c[nH]c3n2)c(OC)c1
Resp: 53.3%

Req: Respond only with viability, T/C recorded for COc1cccc2c1C(=O)c1c(O)c3c(c(O)c1C2=O)CC(O)(C(=O)CO)CC3OC1CC(N)C(O)C(C)O1 (stereo not given) + CNC(=O)c1ccc(Nc2nc(OC3CCCC3)c3c(-c4ccc5nc(C)oc5c4)c[nH]c3n2)c(OC)c1
Resp: 9.29%

###

The entries below are paired with their reported viability, T/C.
System: 156681-154-R-J1-PDC complex spheroid viability
Protocol summary: Anticancer human tumor 156681-154-R-J1-PDC cell line growth inhibition [CLK];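 also: spheroids exposed to the agents for seven days; 100% = DMSO vehicle control viability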
Settings: second compound 1 µM; first compound 0.1 µM; hits give low values
Answer with a number only, understood to be in %.

1) CC(CO)NC(=O)c1cc(-c2ccc(Cl)cc2)nn(-c2cnn(C)c2)c1=O (stereo not given) + CNC(=O)c1ccc(Nc2nc(OC3CCCC3)c3c(-c4ccc5nc(C)oc5c4)c[nH]c3n2)c(OC)c1	42.9
2) CC(Nc1ccc2c(c1)OCCn1cc(N3C(=O)OCC3C(F)F)nc1-2)C(N)=O (stereo not given) + CNC(=O)c1ccc(Nc2nc(OC3CCCC3)c3c(-c4ccc5nc(C)oc5c4)c[nH]c3n2)c(OC)c1	30
3) O=C(c1cc(Cc2n[nH]c(=O)c3ccccc23)ccc1F)N1CCN(C(=O)C2CC2)CC1 + CNC(=O)c1ccc(Nc2nc(OC3CCCC3)c3c(-c4ccc5nc(C)oc5c4)c[nH]c3n2)c(OC)c1	48.5
4) CCCS(=O)(=O)Nc1ccc(F)c(C(=O)c2c[nH]c3ncc(-c4ccc(Cl)cc4)cc23)c1F + CN1CCN(c2cc(C(=O)Nc3cc4cc(-c5cnn(C)c5)ccc4cn3)ccn2)CC1	0.44

Req: Respond only with viability, T/C recorded for Nc1ccn(C2OC(CO)C(O)C2(F)F)c(=O)n1 (stereo not given) + CNC(=O)c1ccc(Nc2nc(OC3CCCC3)c3c(-c4ccc5nc(C)oc5c4)c[nH]c3n2)c(OC)c1
Resp: 11.2

###

Test system: 156681-154-R-J1-PDC complex spheroid viability
Protocol summary: Anticancer human tumor 156681-154-R-J1-PDC cell line growth inhibition [CLK];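 also: spheroids exposed to the agents for seven days; 100% = DMSO vehicle control viability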
Settings: second compound 3.16 µM; first compound 0.1 µM; hits give low values
Measured quantity: viability, T/C (%)
Answer with a number only, understood to be in %.

Some solved entries appear below for comparison.
1) CCc1c2c(nc3ccc(O)cc13)-c1cc3c(c(=O)n1C2)COC(=O)[C@]3(O)CC + CNC(=O)c1ccc(Nc2nc(OC3CCCC3)c3c(-c4ccc5nc(C)oc5c4)c[nH]c3n2)c(OC)c1	14.2
2) CCN1CCN(Cc2ccc(Nc3ncc(F)c(-c4cc(F)c5nc(C)n(C(C)C)c5c4)n3)nc2)CC1 + CNC(=O)c1ccc(Nc2nc(OC3CCCC3)c3c(-c4ccc5nc(C)oc5c4)c[nH]c3n2)c(OC)c1	48

Now turn to the next compound.
Req: Respond only with viability, T/C recorded for O=c1[nH]cc(F)c(=O)[nH]1 + CN1CCN(c2cc(C(=O)Nc3cc4cc(-c5cnn(C)c5)ccc4cn3)ccn2)CC1
Resp: 3.26

###

Test system: 156681-154-R-J1-PDC complex spheroid viability
Protocol summary: Anticancer human tumor 156681-154-R-J1-PDC cell line growth inhibition [CLK];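 also: spheroids exposed to the agents for seven days; 100% = DMSO vehicle control viability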
Settings: second compound 1 µM; first compound 0.1 µM; hits give low values
Measured quantity: viability, T/C (%)
Answer with a number only, understood to be in %.

1) COc1c(OCCCN2CCOCC2)ccc2c3n(c(=NC(=O)c4cnc(N)nc4)nc12)CCN3 + CNC(=O)c1ccc(Nc2nc(OC3CCCC3)c3c(-c4ccc5nc(C)oc5c4)c[nH]c3n2)c(OC)c1	6.93
2) Cn1ncnc1[C@H]1c2n[nH]c(=O)c3cc(F)cc(c23)N[C@@H]1c1ccc(F)cc1 + CN1CCN(c2cc(C(=O)Nc3cc4cc(-c5cnn(C)c5)ccc4cn3)ccn2)CC1	0.69
3) C#Cc1c(F)ccc2cc(O)cc(-c3ncc4c(N5CC6CCC(C5)N6)nc(OCC56CCCN5CC(F)C6)nc4c3F)c12 (configuration not stated) + CNC(=O)c1ccc(Nc2nc(OC3CCCC3)c3c(-c4ccc5nc(C)oc5c4)c[nH]c3n2)c(OC)c1	53.5
4) C#Cc1c(F)ccc2cc(O)cc(-c3ncc4c(N5CC6CCC(C5)N6)nc(OCC56CCCN5CC(F)C6)nc4c3F)c12 (configuration not stated) + CN1CCN(c2cc(C(=O)Nc3cc4cc(-c5cnn(C)c5)ccc4cn3)ccn2)CC1	2.37
5) COc1c(OCCCN2CCOCC2)ccc2c3n(c(=NC(=O)c4cnc(N)nc4)nc12)CCN3 + CN1CCN(c2cc(C(=O)Nc3cc4cc(-c5cnn(C)c5)ccc4cn3)ccn2)CC1	0.27
6) CC1COCCN1c1cc(C2(S(C)(=N)=O)CC2)nc(-c2ccnc3[nH]ccc23)n1 (configuration not stated) + CN1CCN(c2cc(C(=O)Nc3cc4cc(-c5cnn(C)c5)ccc4cn3)ccn2)CC1	1.01

Now turn to the next compound.
Req: Respond only with viability, T/C recorded for CCc1c2c(nc3ccc(O)cc13)-c1cc3c(c(=O)n1C2)COC(=O)[C@]3(O)CC + CNC(=O)c1ccc(Nc2nc(OC3CCCC3)c3c(-c4ccc5nc(C)oc5c4)c[nH]c3n2)c(OC)c1
Resp: 14.7
